- systemName: h-NTPDase3 (Homo sapiens, UniProt O75355)
- Construct: made in house; host or cells: COS-7 cells, transient transfection; crude protein extract after sonication
- Sequence (O75355 1-529): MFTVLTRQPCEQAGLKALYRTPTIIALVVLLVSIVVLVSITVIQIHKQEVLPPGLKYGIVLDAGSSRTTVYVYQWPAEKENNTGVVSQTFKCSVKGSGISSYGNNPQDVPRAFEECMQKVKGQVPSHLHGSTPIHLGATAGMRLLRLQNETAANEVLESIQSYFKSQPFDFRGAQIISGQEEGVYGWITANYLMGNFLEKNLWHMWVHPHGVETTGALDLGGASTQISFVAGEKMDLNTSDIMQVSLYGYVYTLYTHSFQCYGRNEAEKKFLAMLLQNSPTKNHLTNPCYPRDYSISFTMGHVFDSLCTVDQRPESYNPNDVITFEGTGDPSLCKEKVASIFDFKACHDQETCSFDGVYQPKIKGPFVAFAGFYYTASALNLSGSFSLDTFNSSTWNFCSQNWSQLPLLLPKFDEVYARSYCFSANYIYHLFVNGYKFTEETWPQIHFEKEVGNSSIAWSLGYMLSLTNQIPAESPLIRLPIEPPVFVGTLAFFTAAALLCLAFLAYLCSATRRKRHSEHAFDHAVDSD
- testDescription: h-NTPDase3 inhibition, malachite green assay
- Type: biochemical
- experimentalContext: human NTPDase3; compound 100 µM
measurementKind: inhibition at 100 µM (%)

Observe how each entry below is paired with its result.
O=C1Nc2ccccc2/C1=N/NC(=S)Nc1ccccc1 20
O=C1Nc2ccccc2/C1=N/NC(=S)Nc1ccc(F)cc1 46
COc1ccc(OC)c(NC(=S)N/N=C2\C(=O)Nc3ccccc32)c1 34
COc1ccc(NC(=S)NNC2=c3ccccc3=NC2=O)cc1 19
Cc1ccc(NC(=S)N/N=C2\C(=O)Nc3ccccc32)cc1 26

[1] Cc1cccc(C)c1NC(=S)N/N=C1\C(=O)Nc2ccccc21
[2] O=C1Nc2ccccc2/C1=N/NC(=S)Nc1cccc(Cl)c1
For the pair 1 and 2 , which entry has the numerically smaller recorded inhibition at 100 µM? Refer to your chosen entry by its label in the reply.
2
(2: 17%, 1: 25%)

###

- systemName: m-NTPDase1 (Mus musculus, UniProt P55772)
- Construct: made in house; host or cells: COS-7 cells, transient transfection; crude protein extract after sonication
- Sequence (P55772 1-510): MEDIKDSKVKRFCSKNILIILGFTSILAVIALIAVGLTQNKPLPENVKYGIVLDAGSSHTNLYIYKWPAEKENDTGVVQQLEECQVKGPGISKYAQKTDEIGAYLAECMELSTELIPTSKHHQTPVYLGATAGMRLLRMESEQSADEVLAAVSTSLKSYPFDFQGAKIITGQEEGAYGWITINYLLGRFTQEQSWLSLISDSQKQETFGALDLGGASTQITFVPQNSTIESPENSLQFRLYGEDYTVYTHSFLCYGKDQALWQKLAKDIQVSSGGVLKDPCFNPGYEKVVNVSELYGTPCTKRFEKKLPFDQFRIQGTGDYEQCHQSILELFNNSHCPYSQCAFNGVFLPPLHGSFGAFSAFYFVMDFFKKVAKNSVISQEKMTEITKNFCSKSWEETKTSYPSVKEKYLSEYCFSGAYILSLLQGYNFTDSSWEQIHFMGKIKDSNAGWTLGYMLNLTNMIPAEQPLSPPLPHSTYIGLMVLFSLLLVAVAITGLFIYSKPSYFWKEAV
- testDescription: m-NTPDase1 inhibition, malachite green assay
- Type: biochemical
- experimentalContext: compound 100 µM
measurementKind: inhibition at 100 µM (%)

Sample records with inhibition at 100 µM:
molecule	systemName	uom	inhibition at 100 µM
COc1ccc(NC(=S)NNC2=c3ccccc3=NC2=O)cc1 [8k]	m-NTPDase1 (Mus musculus, UniProt P55772)	%	42
COc1ccc(OC)c(NC(=S)N/N=C2\C(=O)Nc3ccccc32)c1 [8j]	m-NTPDase1 (Mus musculus, UniProt P55772)	%	24
O=C1Nc2ccccc2/C1=N/NC(=S)Nc1ccc(F)cc1 [8d]	m-NTPDase1 (Mus musculus, UniProt P55772)	%	41
O=C1Nc2ccccc2/C1=N/NC(=S)Nc1ccccc1 [8a]	m-NTPDase1 (Mus musculus, UniProt P55772)	%	38

[a] O=C1Nc2ccccc2/C1=N/NC(=S)Nc1cccc(Cl)c1 [8g]
[b] O=C1Nc2ccccc2/C1=N/NC(=S)Nc1ccc(Cl)cc1 [8c]
For this pair, a and b , which shows a numerically higher inhibition at 100 µM? Returns: label corresponding to the selected item.
a

###

- systemName: m-NTPDase1 (Mus musculus, UniProt P55772)
- Construct: made in house; host or cells: COS-7 cells, transient transfection; crude protein extract after sonication
- testDescription: m-NTPDase1 inhibition, malachite green assay
- Type: biochemical
- experimentalContext: compound 100 µM
measurementKind: inhibition at 100 µM (%)

molecule	observedResult
O=C1Nc2ccccc2/C1=N/NC(=S)Nc1ccc([N+](=O)[O-])cc1 [8b]	14

[A] Cc1cccc(C)c1NC(=S)N/N=C1\C(=O)Nc2ccccc21 [8i]
[B] Cc1ccc(NC(=S)N/N=C2\C(=O)Nc3ccccc32)cc1 [8h]
Identify the entry with the smaller inhibition at 100 µM: A or B . Use the label to indicate which entry you chose.
A

###

- systemName: m-NTPDase3 (Mus musculus)
- Construct: made in house; host or cells: COS-7 cells, transient transfection; crude protein extract after sonication
- Sequence (Q8BFW6 whole entry): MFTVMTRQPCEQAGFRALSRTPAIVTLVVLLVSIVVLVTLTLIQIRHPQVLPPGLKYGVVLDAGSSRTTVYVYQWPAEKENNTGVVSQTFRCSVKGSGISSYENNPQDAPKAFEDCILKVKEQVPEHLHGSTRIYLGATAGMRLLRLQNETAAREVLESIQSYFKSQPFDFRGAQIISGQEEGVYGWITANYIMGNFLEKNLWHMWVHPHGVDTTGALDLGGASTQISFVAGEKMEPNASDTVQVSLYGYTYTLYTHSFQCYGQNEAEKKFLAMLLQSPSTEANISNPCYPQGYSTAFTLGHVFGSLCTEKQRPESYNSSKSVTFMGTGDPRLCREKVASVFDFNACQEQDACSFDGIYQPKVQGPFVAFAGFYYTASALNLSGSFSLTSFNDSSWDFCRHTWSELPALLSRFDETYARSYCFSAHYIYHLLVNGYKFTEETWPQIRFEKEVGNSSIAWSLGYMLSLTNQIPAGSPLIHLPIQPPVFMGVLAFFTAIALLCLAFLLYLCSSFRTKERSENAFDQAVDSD
- testDescription: m-NTPDase3 inhibition, malachite green assay
- Format: biochemical
- experimentalContext: mean ± SEM of three independent experiments
measurementKind: IC50 (µM)

Please review the entries below; each comes with its answer.
compound	systemName	IC50, µM
O=C1Nc2ccccc2/C1=N/NC(=S)Nc1c(F)cccc1F	m-NTPDase3 (Mus musculus)	0.32
Cc1ccc(C(=O)Nc2ccc(S(=O)(=O)O)c3cc(S(=O)(=O)O)cc(S(=O)(=O)O)c23)cc1NC(=O)c1cccc(NC(=O)Nc2cccc(C(=O)Nc3cc(C(=O)Nc4ccc(S(=O)(=O)O)c5cc(S(=O)(=O)O)cc(S(=O)(=O)O)c45)ccc3C)c2)c1 [Suramin, reference compound]	m-NTPDase3 (Mus musculus)	31

[P] CCNC(=S)N/N=C1\C(=O)Nc2ccccc21
[Q] COc1cccc(NC(=S)N/N=C2\C(=O)Nc3ccccc32)c1
Returns the identifier with the smallest measured IC50 among P and Q . Returns: label corresponding to the selected item.
Q
(Q: 0.7 µM, P: 2.41 µM)

###

- systemName: h-NTPDase1 (Homo sapiens)
- Construct: made in house; host or cells: COS-7 cells, transient transfection; crude protein extract after sonication
- Sequence (P49961 whole entry): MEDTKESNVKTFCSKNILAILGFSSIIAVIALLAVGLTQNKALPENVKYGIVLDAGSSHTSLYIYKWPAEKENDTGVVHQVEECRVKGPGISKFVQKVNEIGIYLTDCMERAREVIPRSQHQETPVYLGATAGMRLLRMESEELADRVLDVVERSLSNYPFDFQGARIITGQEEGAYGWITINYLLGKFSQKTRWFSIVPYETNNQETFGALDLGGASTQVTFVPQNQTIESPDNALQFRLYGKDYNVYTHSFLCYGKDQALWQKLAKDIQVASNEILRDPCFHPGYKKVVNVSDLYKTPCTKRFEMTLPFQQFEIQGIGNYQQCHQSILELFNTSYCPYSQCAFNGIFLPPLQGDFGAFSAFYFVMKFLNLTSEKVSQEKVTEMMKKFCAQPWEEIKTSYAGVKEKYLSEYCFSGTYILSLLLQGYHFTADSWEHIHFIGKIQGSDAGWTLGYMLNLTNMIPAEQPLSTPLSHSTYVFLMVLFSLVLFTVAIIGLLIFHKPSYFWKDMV
- testDescription: h-NTPDase1 inhibition, malachite green assay
- Format: biochemical
- experimentalContext: human NTPDase1; ATP 100 µM substrate; mean ± SEM of three independent experiments
measurementKind: IC50 (µM)

These recorded examples may help you get a feel for the data.
compound	uom	IC50
O=C1Nc2ccccc2/C1=N/NC(=S)Nc1ccc(Cl)cc1	µM	0.23
COc1ccc(OC)c(NC(=S)N/N=C2\C(=O)Nc3ccccc32)c1	µM	0.15
O=C1Nc2ccccc2/C1=N/NC(=S)Nc1ccc([N+](=O)[O-])cc1	µM	0.29
O=C1Nc2ccccc2/C1=N/NC(=S)NCc1ccccc1	µM	0.24
Cc1ccc(C(=O)Nc2ccc(S(=O)(=O)O)c3cc(S(=O)(=O)O)cc(S(=O)(=O)O)c23)cc1NC(=O)c1cccc(NC(=O)Nc2cccc(C(=O)Nc3cc(C(=O)Nc4ccc(S(=O)(=O)O)c5cc(S(=O)(=O)O)cc(S(=O)(=O)O)c45)ccc3C)c2)c1 [Suramin, reference compound]	µM	16.1

[P] O=C1Nc2ccccc2/C1=N/NC(=S)Nc1c(F)cccc1F
[Q] COc1cccc(NC(=S)N/N=C2\C(=O)Nc3ccccc32)c1
[R] CCNC(=S)N/N=C1\C(=O)Nc2ccccc21
[S] Cc1cccc(C)c1NC(=S)N/N=C1\C(=O)Nc2ccccc21
Which order do these items take when sorted by rising IC50? List them. Answer format: the labels, ordered as requested.
Q, P, S, R
(Q: 0.15 µM, P: 0.3 µM, S: 1.63 µM, R: 2.6 µM)

###

- systemName: m-NTPDase8 (Mus musculus)
- Construct: made in house; host or cells: COS-7 cells, transient transfection; crude protein extract after sonication
- Sequence (Q8K0L2 1-497): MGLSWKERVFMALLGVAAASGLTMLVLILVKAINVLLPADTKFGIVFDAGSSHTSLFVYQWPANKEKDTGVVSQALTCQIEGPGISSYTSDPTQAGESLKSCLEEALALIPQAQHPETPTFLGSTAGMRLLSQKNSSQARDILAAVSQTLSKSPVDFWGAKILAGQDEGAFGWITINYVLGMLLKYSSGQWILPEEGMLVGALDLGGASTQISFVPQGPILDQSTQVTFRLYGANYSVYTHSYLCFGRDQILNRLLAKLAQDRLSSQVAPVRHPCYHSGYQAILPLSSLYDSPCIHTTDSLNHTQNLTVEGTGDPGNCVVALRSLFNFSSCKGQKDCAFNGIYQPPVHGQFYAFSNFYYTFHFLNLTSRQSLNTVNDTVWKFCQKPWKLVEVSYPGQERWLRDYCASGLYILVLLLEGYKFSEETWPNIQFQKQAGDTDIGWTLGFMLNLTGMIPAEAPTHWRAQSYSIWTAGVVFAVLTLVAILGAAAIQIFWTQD
- testDescription: m-NTPDase8 inhibition, malachite green assay
- Format: biochemical
- experimentalContext: compound 100 µM
measurementKind: inhibition at 100 µM (%)

See these solved cases before continuing.
molecule	inhibition at 100 µM [%]
O=C1Nc2ccccc2/C1=N/NC(=S)Nc1ccc(Cl)cc1 [8c]	36
O=C1Nc2ccccc2/C1=N/NC(=S)Nc1ccccc1 [8a]	28
COc1ccc(NC(=S)NNC2=c3ccccc3=NC2=O)cc1 [8k]	24
O=C1Nc2ccccc2/C1=N/NC(=S)Nc1cccc(Cl)c1 [8g]	36
O=C1Nc2ccccc2/C1=N/NC(=S)NCc1ccccc1 [8f]	38
Cc1ccc(NC(=S)N/N=C2\C(=O)Nc3ccccc32)cc1 [8h]	28
O=C1Nc2ccccc2/C1=N/NC(=S)Nc1ccc([N+](=O)[O-])cc1 [8b]	30
Cc1cccc(C)c1NC(=S)N/N=C1\C(=O)Nc2ccccc21 [8i]	26

[1] CCNC(=S)N/N=C1\C(=O)Nc2ccccc21 [8m]
[2] O=C1Nc2ccccc2/C1=N/NC(=S)Nc1c(F)cccc1F [8l]
Of 1 versus 2 , which is the one with smaller reported inhibition at 100 µM? Answer format: the label of the selected item.
2
